# Test system: HepG2
# ASSAY_TEXT: cytotoxicity call (relative viability < 0.9)
# EXPERIMENTAL_SETUP: 10 µM
Screen size: about 39,000 compounds; about 3,300 (8.5%) were called active. Many of the other results were omitted from the sample, so actives are more common in it than they were.
Outcome (select one): TRUE (active), FALSE (inactive)

C[C@@H]1CN([C@@H](C)CO)C(=O)c2cccc(NS(=O)(=O)c3cn(C)cn3)c2O[C@H]1CN(C)C(=O)Nc1ccc(F)cc1 | FALSE
COC(=O)C1C(O)CCC2CN3CCc4c([nH]c5ccccc45)C3CC21.Cl (stereo unspecified) | FALSE
C[C@H]1CN([C@@H](C)CO)C(=O)c2cc(NS(C)(=O)=O)ccc2O[C@H]1CN(C)S(=O)(=O)c1ccc(Cl)cc1 | FALSE

What was the test verdict on COc1ccc2c3c([nH]c2c1)[C@@H](CO)N(CC1CCCC1)C[C@]13CCN(CC1)C(=O)c1ccc(cc1)F ?
FALSE

What was the test verdict on COc1ccc(-c2cc(=O)c3c(O)cc(O[C@@H]4O[C@H](CO[C@@H]5O[C@@H](C)[C@H](O)[C@@H](O)[C@H]5O)[C@@H](O)[C@H](O)[C@H]4O)cc3o2)cc1O ?
FALSE

What was the test verdict on Cc1noc(C)c1S(=O)(=O)Nc1cccc2c1O[C@H](CN(C)C(=O)NC1CCCCC1)[C@H](C)CN([C@H](C)CO)C2=O ?
FALSE

What was the test verdict on Cc1cc(C(=O)Nc2cccc3c2O[C@H](CN(C)Cc2ccncc2)[C@@H](C)CN([C@H](C)CO)C3=O)n(C)n1 ?
FALSE

What was the test verdict on C[C@H]1CN([C@@H](C)CO)C(=O)c2cc(NS(C)(=O)=O)ccc2O[C@@H]1CN(C)S(=O)(=O)c1ccc(Cl)cc1 ?
TRUE

What was the test verdict on C[C@@H]1CCCCO[C@H](CN(C)C(=O)Nc2ccc(F)cc2)[C@H](C)CN([C@H](C)CO)C(=O)c2cc(NC(=O)c3ccncc3)ccc2O1 ?
FALSE

What was the test verdict on Cl.N=C(N)NCCCC(N)C(=O)O (stereo unspecified) ?
FALSE

What was the test verdict on C[C@H]1CN([C@@H](C)CO)C(=O)c2cc(NC(=O)Nc3ccc(C(F)(F)F)cc3)ccc2O[C@@H]1CN(C)S(=O)(=O)c1ccc(Cl)cc1 ?
TRUE

What was the test verdict on C[C@H](CO)N1C[C@H](C)[C@@H](CN(C)S(=O)(=O)c2ccc(Cl)cc2)Oc2ccc(NS(C)(=O)=O)cc2C1=O ?
FALSE
